# Lookup of reported growth keyed by entry
Tested on: KM12 colon
Protocol: NCI-60 one-dose screen, 48 h (100 = growth as untreated, 0 = no growth, -100 = all killed)
Test parameters: 10 µM unless noted
The panel holds about 83,000 compounds, 20% with a hit somewhere; the sample as a whole holds those more often.
Enter your answer as a number in %; do not include the unit.

Cc1cc2nc3c4ccccc4n(CCNCCN(C)C)c3nc2cc1C = 27.4
CC(C)C(C(=O)O)n1c(O)c(/C=C2/C=c3cc4c(cc3=NC2=O)OCO4)sc1=S (stereo unspecified) = 103
Cn1cc(-c2nnc(N)nc2-c2c[nH]c3ccccc23)c2cccnc21 = 17.2
COc1ccc(C(=O)/C=C/c2cccc(Cl)c2)cc1S(N)(=O)=O = -57.9
COc1c(F)ccc(C(=O)Nc2ccc3nc(NC(=O)C4CCCN(S(=O)(=O)c5ccc(Cl)cc5)C4)sc3c2)c1F (stereo unspecified) = 78.7

stdin: Can you look up the measured growth of COc1ccc2c(c1)c(/C=N/Nc1ccc3ccccc3n1)cn2C for me?
stdout: -66.5

stdin: Try this compound next: Nc1nc(-c2ccccc2)c(N=Nc2ccc(Cl)cc2[N+](=O)[O-])s1
stdout: 102

stdin: One more compound: C/C(=N\Nc1ccc(S(N)(=O)=O)cc1)c1ccc(N=Nc2c(Nc3ccccc3)[nH][nH]c2=O)cc1
stdout: 3.69

stdin: Another: CCCn1cc(-c2nc(Nc3ccc(C(=O)NCCCCNc4cccc5c4C(=O)N(C4CCC(=O)NC4=O)C5=O)cc3)nc3[nH]ccc23)cn1 (stereo unspecified)
stdout: 6.05

stdin: Could you do the same for Nc1nc(-c2ccccc2)c(N=Nc2ccc([N+](=O)[O-])cc2Cl)s1 , please?
stdout: 90.4

stdin: Another compound to look at: Cc1ccc([C@H]2C(C(=O)c3ccc(Cl)cc3)C3(N[C@@H]2c2ccccc2)C(=O)Nc2ccc(Cl)cc23)cc1 (stereo partly specified)
stdout: 34.8

stdin: // repeat for O=C(N1c2ccccc2Sc2ccccc21)n1ccc2cccnc21 and report
stdout: 49.2

stdin: Would you mind doing CC(=O)Nc1cccc(Nc2nccc(N[C@@H](C)c3ccccc3)n2)c1 as well?
stdout: 3.5

stdin: Query CC(=O)Oc1ccc(/C=C/C(=O)N[C@@H](Cc2ccccc2)C(O)C(=O)NCc2ccccc2)cc1OC(C)=O (stereo partly specified) next
stdout: 86.3

stdin: Please do the same for CCN1C(=O)/C(=N\N=C(/C)c2ccc3c(c2)Nc2ccccc2S3)c2cc(Cl)ccc21 as well.
stdout: 47.3

stdin: Okay, and O=C(NN1C(=O)/C(=C/C=C/c2ccc([N+](=O)[O-])o2)SC1=S)c1cccc(O)c1 ?
stdout: -92.6
